Values were extracted from ChEMBL document CHEMBL1152942.

// IC50 lookup, one value per entry
# Test system: HCT-116
# EXPERIMENT DESCRIPTION: Cytotoxicity against human HCT116 cells after 3 days by MTT assay
# Type: functional, cell-based
# MEASUREMENT CONTEXT: hct-116
RECORDED ENDPOINT: IC50 (nM)

[
  {
    "COMPOUND": "C/C=C(/C)C(=O)OC[C@H]1C2=C(C[C@H]3[C@H]4C5=C(C[C@@H]([C@H](C#N)N13)N4C)C(=O)C(C)=C(OC)C5=O)C(=O)C(C)=C(OC)C2=O [RENIERAMYCIN M]",
    "ASSAYED SYSTEM": "HCT-116",
    "READOUT VALUE": 9.4
  },
  {
    "COMPOUND": "CC=C(C)C(=O)OC[C@H]1C2=C(C[C@H]3[C@H]4C5=C(C[C@@H]([C@H](C#N)N13)N4C)C(=O)C(C)=C(OC)C5=O)C(=O)C(C)=C(OC)C2=O [RENIERAMYCIN M]",
    "ASSAYED SYSTEM": "HCT-116",
    "READOUT VALUE": 34
  }
]
